assay: Components of the Cytosolic LPS Sensing Pathway: Gene Identification via Genome-wide siRNA Screen; details: RAW264.7 macrophages, IL-1a HTRF, actives lie on both sides, screened at 100 nM (by protocol), cells primed 5 h with Pam3CSK4 first
Screen size: about 53,000 sequences; about 3,700 (7%) were called active.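 How the source made its calls: active means gene knockdowns whose robust z-score for IL-1 alpha signal is at least 2 or at most -2, so actives lie on both sides; inactive means the rest.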 The entries come from a sample that favours actives as a whole.
One label from this list, please: yes (active), no (inactive)

# example entries with known answers
residue.sequence	class.assignment
GGAUUUCUGUGGAGAUGGGTT against Cchcr1	no
GGCCAUCACACACAGAAACTT against Pla2g2f	no

Field: outcome | Entry: GAUACAGACCUUGCUCUUCTT against Olfr714
no

Repeat with CCUGUACCCGAACAUACCATT against Fabp12
no

Do the same for GGUGCUAUUCAUCUGCACGTT against Lonp1 please
no

====

experiment: Components of the Cytosolic LPS Sensing Pathway: Gene Identification via Genome-wide siRNA Screen; settings: RAW264.7 macrophages, IL-1a HTRF, actives lie on both sides, screened at 100 nM (by protocol), cells primed 5 h with Pam3CSK4 first
Hit rate of the full screen: of about 53,000 sequences, about 3,700 (7%) were called active. Only a selection was taken, and actives are over-represented in it overall.
# z-score annotations

residue.sequence	z-score
GCAAUCUGUUUAGAGAGAGTT against Slc10a5	-1.16 (inactive)
GCCAAGUGGUGACAUCAACTT against Ralgds	2.7 (active)
GGACUCAACUGCACUGUUGTT against Izumo4	-2.37 (active)
GCUUCUGUUAUGAGGCUCATT against Hif1a	-2.52 (active)
CCAGAGAUUCCCACACGUCTT against Havcr1	-1.37 (inactive)

# z-score lookup, item CGCAUUUUCUCUCGAGCUUTT against Slc25a30
-0.34 (inactive)

Next: GGUACACCAAGGCUUGCUATT against Coq8b
-0.343 (inactive)

Thanks! And GCCCUAUUCCCAACUAUUCTT against Nefl ?
-0.481 (inactive)

// same read-out, input: GGCAGCAUUGAGUGUGUGATT against Asb13
2.53 (active)

====

Listed next: entries and their corresponding z-score.
assay: Components of the Cytosolic LPS Sensing Pathway: Gene Identification via Genome-wide siRNA Screen; conditions: RAW264.7 macrophages, IL-1a HTRF, actives lie on both sides, screened at 100 nM (by protocol), cells primed 5 h with Pam3CSK4 first
Screen size: about 53,000 sequences; about 3,700 (7%) were called active. The entries come from a sample that favours actives as a whole.
Hey, just send me the number, nothing else.

Below, each entry is followed by its recorded z-score result.
residue.sequence	measured.result
CCCAAGAGUGUUUGAGAACTT against Zbtb43	0.213
GAAUCCCUUCGAGUACGACTT against Fxyd2	3.17
GGAAGUGAGAUGUCACUGATT against Ssc5d	0.841
GGGCAACGAGCUGUUCAAATT against Unc45a	1.71
CCAAGCAUUCGAGUAUGUUTT against Ctsj	1.07
CGCAAAAACUGGUGUAACCTT against Arhgef1	-0.958
GUGAAGAGGAGCAGGACUUTT against Klrc3	0.261
AGUAUUCUUUGCUUUCCUUTT against Olfr822	0.731
GCGUGGAGUCUUCAGUCAUTT against Vhl	-0.101
GGGCUCCUGAGCCUCUUAATT against Sprr1a	2.29

Which z-score is reported for this sequence? GGACAGGAUGAGUUUGACATT against Rhou
-1.52

// next record GGAUCUUCUCUGCCUAUAUTT against Arpc1b
-1.42

====

test: Components of the Cytosolic LPS Sensing Pathway: Gene Identification via Genome-wide siRNA Screen; details: RAW264.7 macrophages, IL-1a HTRF, actives lie on both sides, screened at 100 nM (by protocol), cells primed 5 h with Pam3CSK4 first;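 further: robust z of the log signal after scaling to non-targeting control siRNA wells of the plate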
The whole screen tested about 53,000 sequences, of which about 3,700 (7%) were called active. Shown is part of a subset that was picked to be rich in actives.
Values of z-score greater than or equal to -0.4 map to True; values below map to False.

A selection of reference data follows.
residue.sequence	class.assignment
GGUUGAAGGCCAAUUCAAATT against Lrrc10	True
GCAUCACGUAUGUGAUUUGTT against Dmrtc1a	False
GGAAAAACGUGGUGAACUATT against Zeb2	True
GGCAACACGAUGCAGCAGUTT against Fam50a	True
CCAUAGUUGAUGGAAGAUATT against Shld2	False

Pending sequence:
Could you please find out whether CCUGGUCAAUCGAUUCAUATT against 5330416C01Rik has z-score that meets -0.4 or exceeds it?
True

====

Assay: Components of the Cytosolic LPS Sensing Pathway: Gene Identification via Genome-wide siRNA Screen;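 further: robust z of the log signal after scaling to non-targeting control siRNA wells of the plate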
Settings: RAW264.7 macrophages, IL-1a HTRF, actives lie on both sides, screened at 100 nM (by protocol), cells primed 5 h with Pam3CSK4 first
Procedure: Non-canonical inflammasome activation by cytosolic LPS is a critical component of the host response to Gram-negative bacterial infection, however we lack a comprehensive understanding of the cellular processes that control this pathway. […] Lipofectamine RNAiMAX Transfection Reagent ([…]; Invitrogen) was added in […] serum-free, antibiotic-free media to plate wells using a Thermo Scientific Matrix WellMate and Microplate Stacker. […] The plates were read on an EnVision plate reader (PerkinElmer). […]
Screen size: about 53,000 sequences; about 3,700 (7%) were called active. Shown is part of a subset that was picked to be rich in actives.
# strict inequality: z-score < 0.8 yields yes (1), everything else yields no (0)

The following sequences have reported results that may help.
residue.sequence	class.assignment
GCAGAUCACCUUUUGUUUATT against Gdap2	yes (1)
GGUUAAAAAUGCCAUUAGATT against Olfr1233	yes (1)
GGACAUUCCUGAACAUAAUTT against Pcdha3	yes (1)
GCAACUUUAAUGACAGCGUTT against Moxd1	yes (1)

Strictly below 0.8: is that where z-score of GGAAUGGAUAAAAACAUUGTT against Tank sits?
no (0)

Next up: GCUGUUCUGCAAAACUGGATT against Rbpms
yes (1)

Ok, now GCCCAAUAAAAUUGAAGGGTT against Pmis2
yes (1)

Also, GGACACUAUGACGGAAGUATT against Apoe please.
yes (1)

How about CCAAAUAACCUGCUACGAGTT against Ffar2 ?
no (0)

For CCUUGUUACUAUACUACACTT against Ppp1r2 then?
no (0)

And then CCCAUUCUGUAUAUAGUGCTT against Adam6a , what is it?
yes (1)

Also check GGUAUUUGAAUUUCGUCCCTT against Zc3h15
yes (1)

====

assay: Components of the Cytosolic LPS Sensing Pathway: Gene Identification via Genome-wide siRNA Screen; conditions: RAW264.7 macrophages, IL-1a HTRF, actives lie on both sides, screened at 100 nM (by protocol), cells primed 5 h with Pam3CSK4 first;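 further: robust z of the log signal after scaling to non-targeting control siRNA wells of the plate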
Among all 53,000 sequences or so, about 3,700 (7%) were called active.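 Rule for the calls: active = gene knockdowns whose robust z-score for IL-1 alpha signal is at least 2 or at most -2, so actives lie on both sides; inactive = the rest.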 The full list was thinned out, with actives kept by preference.
Response enum: true (active), false (inactive)

residue.sequence	class.assignment
GCUGUACGUUUGCACAUUCTT against Rc3h1	true
GGGAUUCACUCUUCUUUAGTT against Sebox	false
GGAACUAGUUUUUAUACUCTT against Igfbp1	true
GGCCAUUUACAAGAUGGUUTT against Hpca	false

Hi, do you know how GCAGUCACCUUCAAAAAAATT against Zfp960 came out in this test?
false

Would you kindly repeat that for GUUCCACAAAGACCAUCAGTT against Olfr134 ?
false

Proceed to GGGAGAACACAUCUACUGATT against Slamf6
false

Thanks! And GGAAGACAGGCAUAAAAAATT against Slc41a2 ?
false

Now consider GGAAAAUGUCCCACUUUUATT against Olfr70 and answer again.
false

// query: CCCGUUGUAUACAAAUACCTT against Tmem41b
false

====

Form field: z-score (one value per entry).
assay: Components of the Cytosolic LPS Sensing Pathway: Gene Identification via Genome-wide siRNA Screen; settings: RAW264.7 macrophages, IL-1a HTRF, actives lie on both sides, screened at 100 nM (by protocol), cells primed 5 h with Pam3CSK4 first;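 further: robust z of the log signal after scaling to non-targeting control siRNA wells of the plate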
The campaign covered roughly 53,000 sequences. About 3,700 (7%) were called active. The full list was thinned out, with actives kept by preference.
Would you mind answering with just the numeric figure?

Here are 5 sequences together with their reported answers.
residue.sequence	z-score
CGAAAUCAGAACCUGGGAATT against Hacd3	2.73
GGAAGAAAAGGGAUAUCAGTT against Xirp1	0.253
GGUGCAGAGCUUGAGAUGATT against Anks3	-0.729
CCAUCAUUGCUCGUAUUGGTT against Olfr656	-2.9
GGUCCUGAAUUUCAUCCUUTT against B4galnt2	0.459

Next item in the queue.
Field request: z-score | item: GGAAAGAUGUGGUCCAGCUTT against Sirt3
0.373
